Provenance of the data: patent US20080044360A1

target: T1, rat collagen, acid soluble, type I, rat tail (Upstate 08-115) (rat, UniProt P02454 152-1207; P02466 86-1125); test: dried collagen assay
T1 construct: tissue extract, gelled and dried in wells; also called dried rat collagen
T1 sequence (P02454 152-1207, chain 1 of 2): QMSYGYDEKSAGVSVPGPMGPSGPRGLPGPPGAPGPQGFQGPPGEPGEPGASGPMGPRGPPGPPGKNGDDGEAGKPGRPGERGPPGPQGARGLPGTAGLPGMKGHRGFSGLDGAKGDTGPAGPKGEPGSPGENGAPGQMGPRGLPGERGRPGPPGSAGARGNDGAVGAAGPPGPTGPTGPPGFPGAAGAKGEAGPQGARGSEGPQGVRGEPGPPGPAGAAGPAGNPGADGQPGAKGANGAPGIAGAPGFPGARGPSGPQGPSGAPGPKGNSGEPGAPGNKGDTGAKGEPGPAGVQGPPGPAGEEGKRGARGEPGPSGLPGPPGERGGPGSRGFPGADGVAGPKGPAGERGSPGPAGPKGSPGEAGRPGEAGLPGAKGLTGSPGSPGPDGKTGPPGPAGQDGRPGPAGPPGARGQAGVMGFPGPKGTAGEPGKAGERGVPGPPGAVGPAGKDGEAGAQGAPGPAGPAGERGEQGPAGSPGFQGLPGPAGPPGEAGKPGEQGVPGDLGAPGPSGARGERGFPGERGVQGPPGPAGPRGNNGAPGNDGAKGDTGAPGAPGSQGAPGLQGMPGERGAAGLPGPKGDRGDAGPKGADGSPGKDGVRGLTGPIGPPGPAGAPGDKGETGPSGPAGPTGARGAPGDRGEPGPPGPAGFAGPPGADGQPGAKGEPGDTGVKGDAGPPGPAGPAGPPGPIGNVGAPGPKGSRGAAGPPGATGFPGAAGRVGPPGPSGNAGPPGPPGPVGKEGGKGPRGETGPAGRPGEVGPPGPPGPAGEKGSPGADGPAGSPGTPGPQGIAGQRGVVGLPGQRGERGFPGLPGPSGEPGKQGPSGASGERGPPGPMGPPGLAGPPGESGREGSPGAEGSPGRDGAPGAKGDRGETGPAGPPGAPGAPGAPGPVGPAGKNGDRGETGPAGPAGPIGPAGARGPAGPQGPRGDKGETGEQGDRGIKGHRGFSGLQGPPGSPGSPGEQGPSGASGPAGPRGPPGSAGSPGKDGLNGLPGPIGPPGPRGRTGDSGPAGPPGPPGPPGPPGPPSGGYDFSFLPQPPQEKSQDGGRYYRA
T1 sequence (P02466 86-1125, chain 2 of 2): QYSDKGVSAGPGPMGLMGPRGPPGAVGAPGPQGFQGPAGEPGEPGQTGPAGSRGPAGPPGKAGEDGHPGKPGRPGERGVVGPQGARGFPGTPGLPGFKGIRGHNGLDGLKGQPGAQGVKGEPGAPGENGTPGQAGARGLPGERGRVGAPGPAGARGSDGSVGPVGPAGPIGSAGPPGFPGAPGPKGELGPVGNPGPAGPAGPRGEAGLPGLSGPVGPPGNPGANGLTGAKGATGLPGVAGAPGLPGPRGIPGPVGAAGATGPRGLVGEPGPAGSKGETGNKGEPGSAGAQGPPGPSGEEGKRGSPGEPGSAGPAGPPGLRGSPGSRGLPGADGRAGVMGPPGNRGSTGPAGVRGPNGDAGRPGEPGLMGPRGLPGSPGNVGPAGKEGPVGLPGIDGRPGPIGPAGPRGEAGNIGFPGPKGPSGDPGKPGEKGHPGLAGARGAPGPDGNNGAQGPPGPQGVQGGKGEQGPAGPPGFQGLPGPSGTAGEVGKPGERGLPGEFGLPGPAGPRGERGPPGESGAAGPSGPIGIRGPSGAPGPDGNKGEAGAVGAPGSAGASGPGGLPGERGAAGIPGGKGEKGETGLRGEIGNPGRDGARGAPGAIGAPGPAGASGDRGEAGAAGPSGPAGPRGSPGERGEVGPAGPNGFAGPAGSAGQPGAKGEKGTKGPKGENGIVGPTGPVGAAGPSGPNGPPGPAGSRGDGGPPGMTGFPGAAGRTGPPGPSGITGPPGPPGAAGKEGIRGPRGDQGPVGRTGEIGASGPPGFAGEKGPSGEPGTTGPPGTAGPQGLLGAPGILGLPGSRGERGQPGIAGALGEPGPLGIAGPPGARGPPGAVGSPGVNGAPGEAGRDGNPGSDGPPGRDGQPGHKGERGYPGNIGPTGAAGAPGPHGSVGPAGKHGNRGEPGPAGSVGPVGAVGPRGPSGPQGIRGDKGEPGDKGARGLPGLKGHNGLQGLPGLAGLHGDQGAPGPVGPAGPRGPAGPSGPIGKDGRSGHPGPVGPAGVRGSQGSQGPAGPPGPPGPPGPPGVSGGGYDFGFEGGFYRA
Bridge positions count the residues as written; N and C are the ends. Square brackets hold non-standard residues; d marks the D form. Primed or numbered codes have the meaning given here. Side chains are listed from the residue outwards. Ends that are not written are not given here. Bip = N[C@@H](Cc1ccc(-c2ccccc2)cc1)C(=O)O; Phe(4-NH2) = Nc1ccc(C[C@H](N)C(=O)O)cc1; Gd^T(3) = GdDTPA attached via thiourea; 2Nal = N[C@@H](Cc1ccc2ccccc2c1)C(=O)O; Gd^T = not defined here; Gd^T″ = GdDTPA-thiourea; Dap = NC[C@H](N)C(=O)O
Values of % bound greater than or equal to 20% map to Fulfilled; values below map to Not fulfilled.

Solved entries:
{"Binder": "{Gd^T}-DWTCSGDEYRWHCNYE (disulfide 4-13 (inferred); not fully specified (C-terminus); reading uncertain) [Compound ID 845]", "Label": "Not fulfilled"}
{"Binder": "{Gd^T″}-GQWHCTTRFPHHYCLYG (disulfide 5-14 (inferred); not fully specified (C-terminus)) [Compound ID 954]", "Label": "Fulfilled"}
{"Binder": "{Gd^T″}-DWTCSGDEYYWHCNYE (disulfide 4-13 (inferred); not fully specified (C-terminus)) [Compound ID 834]", "Label": "Not fulfilled"}
{"Binder": "{Gd^T}-GQWHCTTRFPHHYCAYG (disulfide 5-14 (inferred); not fully specified (C-terminus); reading uncertain) [Compound ID 855]", "Label": "Not fulfilled"}
{"Binder": "{Gd^T″}-[Dap](Gd^T″)[Dap]([Dap-Gd^T″-Gd^T″])WHCYTYFPHHYCVYG (disulfide 5-14; also: X2: inner Dap bears two Gd^T) [Compound ID 1002]", "Label": "Fulfilled"}
{"Binder": "GQWHCTTYFPHHYCLYG (disulfide 5-14 (inferred); not fully specified (N-terminus)) [Compound ID 919]", "Label": "Fulfilled"}
{"Binder": "{Gd^T″}-K(Gd^T″)WHCYTK(Gd^T″)FPHHYCVY[Bip] (disulfide 4-13) [Compound ID 1008]", "Label": "Fulfilled"}
{"Binder": "{Gd^T}-GQWTCSGDEYTWHCNYA (disulfide 5-14 (inferred); not fully specified (C-terminus); reading uncertain) [Compound ID 841]", "Label": "Fulfilled"}
{"Binder": "{Gd^T″}-GK([Gly-Gd^T″])WHCYTYFPHHYCLYYK(Gd^T″) (disulfide 5-14 (inferred); not fully specified (C-terminus)) [Compound ID 987]", "Label": "Fulfilled"}
{"Binder": "{Gd^T″}-GQWHCTTYFPHH[dY]CLYG (disulfide 5-14 (inferred); not fully specified (C-terminus)) [Compound ID 914]", "Label": "Not fulfilled"}

Is % bound for {Gd^T(3)}-GQWHCTTDFPHHYCL[2Nal]G (disulfide 5-14) [Compound ID 891] at or above 20%? Fulfilled

Is % bound for {Gd^T″}-GK([Gly-Gd^T″])WHCYK(Gd^T″)YFPHHYCLYG (disulfide 5-14 (inferred); not fully specified (C-terminus)) [Compound ID 991] at or above 20%? Not fulfilled

Is % bound for {Gd^T″}-GK([Gly-Gd^T″])WHCYTK(Gd^T″)FPHHYCK(Gd^T″)YY (disulfide 5-14 (inferred)) [Compound ID 1013] at or above 20%? Fulfilled

Is % bound for {Gd^T″}-GK([Gly-Gd^T″])WHCTTYFPHHYCL[Phe(4-NH2)]G (disulfide 5-14 (inferred); not fully specified (C-terminus)) [Compound ID 970] at or above 20%? Fulfilled

Is % bound for {Gd^T″}-GK([Gly-Gd^T″])WHCYTYFPYHYCLYG (disulfide 5-14 (inferred)) [Compound ID 964] at or above 20%? Fulfilled

Is % bound for {Gd^T″}-GQWHCT[dT]RFPHHYCLYG (disulfide 5-14 (inferred)) [Compound ID 879] at or above 20%? Not fulfilled

Is % bound for {Gd^T″}-GQWHCTTD[Phe(4-NH2)]PHHYCLYG (disulfide 5-14 (inferred)) [Compound ID 884] at or above 20%? Not fulfilled
